- method: plasma protein binding rate (CD-1 mouse)
- Format: in vitro ADME

- molecule: "CC/C(=C(/c1ccc(/C=C/C(=O)O)cc1)c1cc2ccccc2[nH]1)c1ccc(F)cc1Cl [Compound I-1]"
  fraction unbound: 0.012

---

- method: in vivo PK properties (cassette PK)
- conditions used: plasma, po, 2.5 mg/kg, P.O 2.5 mpk, read-out: AUC0-last (nm/hr)

- compound: "CC/C(=C(/c1ccc(/C=C/C(=O)O)cc1)c1ccc2[nH]ncc2c1)c1ccc(F)cc1Cl [ARN-810, reference compound]"
  AUC(0-t) / µM·h: 3.28
- compound: "CC/C(=C(/c1ccc(/C=C/C(=O)O)cc1)c1cc2ccccc2[nH]1)c1ccc(F)cc1Cl [Compound I-1]"
  AUC(0-t) / µM·h: 18.3

These data points were gathered from patent US10519143B2.
